- Test system: RXF 393 renal
- Protocol Notes: NCI-60 one-dose screen, 48 h (100 = growth as untreated, 0 = no growth, -100 = all killed)
- Settings: 10 µM unless noted
About 83,000 compounds went through this panel and 20% of them were active in at least one assay; those are over-represented in the sample as a whole. The source made the active and inactive calls. The calls were made as follows: active = growth percent below 10; inactive = the rest.

Molecule	growth
C/C(=N\Nc1ccc2ccccc2n1)c1ccccn1	9.99% (active)
O=C(/C=C/c1cccc(O)c1)c1ccccc1O	89.9% (inactive)
Cc1csc(Nc2nc(-c3ccc(Cl)cc3)nc(C(Cl)(Cl)Cl)n2)n1	87.1% (inactive)
C=COCCCCCCCCCCCCCCCCCC	119% (inactive)
O=S(=O)(NCCNc1cc(-c2cn(-c3ccccc3)nc2-c2cccc(O)c2)ccn1)c1ccc(Br)cc1	40.1% (inactive)
Cc1nn(-c2ccc(Cl)cc2)c(=O)n1CCn1cnc2ccccc21	107% (inactive)
COc1ccc(-c2cc(/C=C/C(=O)c3ccc(N)cc3)[nH]n2)cc1	20% (inactive)
COc1cc(OC)c2c(c1)c1nc3cc(C)c(C)cc3nc1n2CCN(C)C	96.2% (inactive)
Cc1cc(N2CCOCC2)nc(N(CCCNc2ccnc3cc(Cl)ccc23)Cc2ccco2)n1	21.2% (inactive)
O=C1NC(c2ccc(Cl)c(Cl)c2)=C/C1=C\c1ccccc1	65.2% (inactive)
CCCC(=O)N1CCCCC1CC (stereo unspecified)	115% (inactive)

====

- System: NCI-H322M lung
- Protocol Notes: NCI-60 one-dose screen, 48 h
- Settings: 10 µM unless noted
This is part of a sample that, as a whole, favours compounds with a hit. Of some 83,000 tested, about 20% had one in any assay. Activity calls are given as the source filed them. How the source made its calls: active means growth percent below 10; inactive means the rest.
Outcomes: Yes = active, No = inactive

Compound	Classification
O=C1CN(c2ccccc2)C(=O)C1C(=O)Nc1ccc(Cl)c(Cl)c1 (stereo not given)	No
COc1ccc(-c2c(-c3nc4ccc(N5CCOCC5)cc4[nH]3)[nH]c(C)c2C(C)=O)cc1	No
Cc1nn(-c2ccc(Br)cc2)c2nc3[nH]c(=O)[nH]c(=O)c3nc12	No
Cc1ccncc1C(=O)O	No
COc1ccc(-c2nc3ccccn3c2-c2nc3ccc(Cl)cc3[nH]2)cc1	No
O=c1[nH]c(=S)[nH]c2nc[nH]c12	No
CC1(C)CC[C@]2(C(=O)NCCNCCN)CC[C@]3(C)C(=CC[C@@H]4[C@@]5(C)CCC(=O)C(C)(C)[C@@H]5CC[C@]43C)[C@@H]2C1	No
N#Cc1cnc2cc(OC[C@@H](O)CO)c(NC(=O)CC3CSSC3)cc2c1Nc1ccc(OCc2cccc(F)c2)c(Cl)c1	Yes
CN(CSc1ccc(Cl)cc1)c1ccc(CSc2ccc(Cl)cc2)cc1	No
Nc1ccc(Cl)cn1	No

====

Measured growth accompanies every entry in the list below.
- System: OVCAR-3 ovarian
- Protocol Notes: NCI-60 one-dose screen, 48 h (100 = growth as untreated, 0 = no growth, -100 = all killed)
- Settings: 10 µM unless noted
Compounds without any hit were thinned out: in the full panel of roughly 83,000, 20% have a hit.
Readout: growth (%)

Compound	Readout	Observed Result
CN1CCN(CC#CCn2c3c(c4ccccc42)C[C@]2(C)[C@H]4CC[C@@H]5[C@H]6[C@H]7OC(=O)[C@@]6(CCC7(C)C)CC[C@@]5(C)[C@]4(C)CC[C@H]2C3(C)C)CC1	growth	80.2
Cc1cc(N(CCCNc2ccnc3cc(Cl)ccc23)Cc2ccco2)nc(N2CCOCC2)n1	growth	72.4
O=C(N/N=C\c1ccccc1O)C1CC1	growth	102
COc1cc2ncnc(Nc3ccc(Oc4ccnc(C)c4)c(C)c3)c2cc1NC(=O)CC1CCSS1 (stereo not drawn)	growth	-81.4
C#CCN=C[C@]12CC[C@@H](C(=C)C)[C@@H]1[C@H]1CC[C@@H]3[C@@]4(C)CCC(=O)C(C)(C)[C@@H]4CC[C@@]3(C)[C@]1(C)CC2	growth	62.3
O=C1/C(=C\c2ccc(Br)o2)SC(=S)N1CCc1ccc(O)cc1	growth	62.9
O=C1CCN2C(=O)Nc3ccccc3C2C1 (stereo not drawn)	growth	111
N#CCCCCCn1c2ccccc2c2c3[nH]c(=O)[nH]c(=O)c3c3c4ccccc4n(CCCCCC#N)c3c21	growth	49.2

====

- Tested on: SNB-19 CNS
- Protocol Notes: NCI-60 one-dose screen, 48 h
- Settings: 10 µM unless noted
About 83,000 compounds went through this panel and 20% of them were active in at least one assay; those are over-represented in the sample as a whole. Calls of active or inactive are those of the source. How the source made its calls: active means growth percent below 10; inactive means the rest.
Outcomes: active, inactive

Compound	Classification
N#C/C(=C\c1ccc(-c2ccc(F)cc2)o1)c1nc(-c2ccco2)cs1	inactive
C=C(C)[C@@H]1CC[C@]2(C=O)CC[C@]3(C)[C@H](CC[C@@H]4[C@@]5(C)C/C(=C/c6cccnc6)C(=O)C(C)(C)[C@@H]5CC[C@]43C)[C@@H]12	inactive
C=C1C(=O)O[C@H]2[C@H]1CC/C(COC(=O)NCCc1c[nH]c3ccccc13)=C\CC[C@@]1(C)O[C@@H]21	inactive
N#CC1=C(N)Oc2c(sc3c(F)cccc23)C1c1ccc(Cl)cc1 (configuration not stated)	inactive
O=C1CCC/C=C\C[C@H]2C=C(Cl)C(=O)/C2=C/C[C@H](CCCCC(F)(F)F)OC(=O)CCC/C=C\C[C@H]2C=C(Cl)C(=O)/C2=C/C[C@H](CCCCC(F)(F)F)O1	active
COc1ccc(-c2cc(=O)oc3ccc(Cl)cc23)cc1F	inactive
CC(=O)O[C@H]1CC[C@@]2(C)C(=CC[C@@H]3[C@@H]2CC[C@]2(C)C(=O)N(O)C(=O)C[C@@H]32)C1	inactive
Nc1c(C(=O)Nc2c(Cl)cccc2Cl)sc2nc3c(cc12)CCCC3	inactive
COc1cnc2c(c1)C(=O)c1c-2n(CCCN2CCN(CCO)CC2)c(=O)c2cc([N+](=O)[O-])ccc12	active
CC1(C)CC[C@]2(CO)CC[C@]3(C)C(=CC[C@@H]4[C@@]5(C)CC[C@H](NCO)C(C)(C)[C@@H]5CC[C@]43C)[C@@H]2C1	inactive
Cn1cc(-c2csc(-c3cn(CCCN4CCCCC4)c4ccc(F)cc34)n2)c2cccnc21	inactive
Nc1ccccc1NC(=O)c1ccc(CN2CCC/C(=C\c3ccccn3)C2=O)cc1	inactive
O=C(NCN1C(=O)c2cccc3cccc(c23)C1=O)N1CCC(Cc2ccccc2)CC1	inactive
O=Cc1nc2ccccc2[nH]1	inactive
CC1(C)C(=O)/C(=C\c2ccccn2)C[C@]2(C)[C@H]3CC[C@@H]4[C@@H](C(=O)/C=C/c5ccccn5)CC[C@@]4(C)[C@]3(C)CC[C@@H]12	active
Cc1cc2nc3c4cc(Cl)ccc4n(CCN(C)C)c3nc2cc1C	inactive
CC(=O)OC(C)COc1ccc(-c2ccccc2)cc1 (configuration not stated)	inactive

====

- System: 786-0 renal
- Protocol Notes: NCI-60 one-dose screen, 48 h (100 = growth as untreated, 0 = no growth, -100 = all killed)
- Settings: 10 µM unless noted
The panel holds about 83,000 compounds, 20% with a hit somewhere; the sample as a whole holds those more often.
Readout: growth (%)

Compound	Unit Name	Observed Result
CC1(C)C(=O)/C(=C\c2ccco2)C[C@]2(C)[C@H]3CC[C@@H]4[C@@H](C(=O)/C=C/c5ccco5)CC[C@@]4(C)[C@]3(C)CC[C@@H]12	%	119
COc1cccc(-c2nn(-c3ccccc3)cc2-c2ccnc(NCCNS(=O)(=O)c3ccccc3)c2)c1	%	42.7
O=C1CCN2C(=O)Nc3ccccc3C2C1 (centres undefined)	%	99.3
CC(C)=CCC/C(C)=C/CC/C(C)=C/CSC[C@H](NC(=O)CCCCCN1CCN(C)CC1)C(=O)NC1CCCCCC1	%	75.9

====

Measured growth accompanies every entry in the list below.
- Tested on: NCI-H23 lung
- Protocol Notes: NCI-60 one-dose screen, 48 h (100 = growth as untreated, 0 = no growth, -100 = all killed)
- Settings: 10 µM unless noted
The panel holds about 83,000 compounds, 20% with a hit somewhere; the sample as a whole holds those more often. Activity calls are given as the source filed them. How the source made its calls: active means growth percent below 10; inactive means the rest.

Molecule	growth
N=C(N)N=Nc1ccc(O)cc1	68% [100 µM] (inactive)
O=S(=O)(NCCNc1cc(-c2cn(-c3ccccc3)nc2-c2cccc(O)c2)ccn1)c1ccc(F)cc1	33.6% (inactive)
Cc1ccc(-c2ccc(/C=C(\C#N)c3nc(-c4ccco4)cs3)o2)cc1	95% (inactive)
Fc1ccc2nc(-c3cc(-c4ccc5c(c4)OCO5)n[nH]3)[nH]c2c1	64% (inactive)
C#CCC(C)(O)/C=C/C1=C(C)CCCC1(C)C (stereo not given)	94.5% (inactive)
CCCCC[C@H]1CC=C2C(=O)C=C[C@@H]2CC=CCCCC(=O)O[C@@H](CCCCC)CC=C2C(=O)C=C[C@@H]2CC=CCCCC(=O)O[C@@H](CCCCC)CC=C2C(=O)C=C[C@@H]2CC=CCCCC(=O)O1	-16.4% [8.75 µM] (active)
c1ccc(CN2C(c3ccccc3)=Nc3ccccc3C2c2c[nH]c3ccccc23)cc1 (stereo not given)	27.4% (inactive)
O=C1c2ccccc2NC(c2cn(-c3ccccc3)nc2-c2cccs2)N1Cc1ccccc1 (stereo not given)	74% (inactive)
Brc1ccc(Cn2nnnc2-c2ccn(-c3ccccc3)n2)cc1	62.3% (inactive)
COc1ccc(/C=C/C(=O)c2ccc([N+](=O)[O-])cc2)cc1	104% (inactive)
Clc1ccc2[nH]cc(-c3nc(-c4c[nH]c5ncccc45)cs3)c2c1	51.7% (inactive)
C=C(C)[C@@H]1CC[C@]2(C(=O)O)CC[C@]3(C)[C@H](CC[C@@H]4[C@@]5(C)C/C(=C/c6cccc(I)c6)C(=O)C(C)(C)[C@@H]5CC[C@]43C)[C@@H]12	20.3% (inactive)
CN(C)c1ccc(N)c2ccccc12	-79.6% (active)
O=C1CN(c2ccccc2)C(=O)C1C(=O)Nc1ccc(Cl)c(Cl)c1 (stereo not given)	31.2% [100 µM] (inactive)
Cc1cc(Cl)nc(N(CCCNc2ccnc3cc(Cl)ccc23)Cc2ccco2)n1	8.17% (active)
Cc1ccnc2c(OCc3ccccc3)cccc12	93.5% (inactive)
Cn1cc(-c2csc(-c3cn(CCCN4CCCCC4)c4ccc(F)cc34)n2)c2cccnc21	89.2% (inactive)
O=Cc1nc2ccccc2[nH]1	97.9% (inactive)
C/C(Cc1ccc(Cl)cc1)=C(/c1ccc(Cl)cc1)c1ccc(OCCN2CCCC2)cc1	78.7% (inactive)
CC(=O)c1c(C)[nH]c(-c2nc3ccc(N4CCN(C)CC4)cc3[nH]2)c1-c1ccc(OCC2CCOCC2)cc1	36.6% (inactive)
Nc1c(C(=O)Nc2cccc3ccccc23)sc2nc3c(cc12)CCCC3	23.1% (inactive)
Nc1c2c(nc3ccc(Cl)cc13)CC(c1ccc(O)cc1)CC2=O (stereo not given)	61.2% (inactive)
CC(C)=CCC[C@](C)(O)[C@H]1CC[C@]2(C)[C@@H]1CC[C@@H]1[C@@]3(C)C/C(=C/c4ccc(Br)cc4)C(=O)C(C)(C)[C@@H]3CC[C@]12C	85.3% (inactive)
C=C(C)[C@@H]1CC[C@]2(C)CC[C@]3(C)[C@H](CC[C@@H]4[C@@]5(C)CCCNC(C)(C)[C@@H]5CC[C@]43C)[C@@H]12	94.1% (inactive)
Nc1c2c(nc3ccc(Cl)cc13)CC(c1ccccc1)CC2=O (stereo not given)	58.6% (inactive)
CCN1CCN(c2nc(C)cc(N(CCCNc3ccnc4cc(Cl)ccc34)Cc3ccco3)n2)CC1	62.2% (inactive)
Cc1cc(C)nc(NC(N)=NCCc2ccccc2)n1	50.4% (inactive)
N#CCCCCCn1c2ccccc2c2c3[nH]c(=O)[nH]c(=O)c3c3c4ccccc4n(CCCCCC#N)c3c21	55.6% (inactive)
CCN(CC)CCCCCCNc1ccnc2cc(Cl)ccc12	83.4% (inactive)
COc1ccc(-c2n/c(=C\c3c(O)[nH]c4ccc(OC)cc34)cc3c2=Nc2ccccc2-3)cc1	-7.74% (active)
N#C/C(=C\c1ccc(-c2ccccc2)o1)c1nc(-c2ccco2)cs1	82.7% (inactive)
O=C1OC(c2ccc(Cl)c(Cl)c2)=C/C1=C/c1cccc([N+](=O)[O-])c1	88.1% (inactive)
Cc1nn2c(-c3nc4cc(Cl)c(Cl)cc4[nH]3)c(-c3ccc(F)cc3)nc2s1	55.8% (inactive)
O=c1c2sc3ncc(Br)cc3c2ncn1-c1cccc(Cl)c1	87.4% (inactive)
OCC12CCCC(CO)(COC1)C2O (stereo not given)	97% (inactive)
Cc1cccc(C)c1NC(=O)CSC(=S)N1CCCCC1	88.7% (inactive)
COc1ccc(C2(Cl)c3ccccc3N(c3ccccc3)c3ccccc32)cc1	-14.8% (active)
Cc1ccc(N(CC(=O)Nc2ccc(S(=O)(=O)N3CCC(N4CCCC4)CC3)cc2)S(=O)(=O)c2ccc(Cl)cc2)cc1	77.6% (inactive)
Oc1cccc2oc(=S)[nH]c12	104% (inactive)
CCOc1ccc(NC(=O)c2ccoc2COc2ccccc2)cc1	103% (inactive)

Taken from PubChem BioAssay (NCI).
